system: BDF1 mice, B16 melanoma ip, median survival T/C; experiment: NCI In Vivo Anticancer Drug Screen. Data for tumor model B16 Melanoma (intraperitoneal) in B6D2F1 (BDF1) mice; conditions: endpoint: median survival time; dose: 3.13 mg/kg/injection; schedule: Q01DX009 (ip); vehicle: saline with Tween-80; higher = longer survival
Toxic doses and inconclusive results are not listed.

- compound: "CO[C@@H]1[C@H](O)CC[C@]2(CO2)[C@H]1[C@@]1(C)O[C@@H]1CC=C(C)C"
  T/C: "104 % of control"
- compound: "O=C1NC2C(NC(=O)N2Cl)N1Cl (stereo not drawn)"
  T/C: "101 % of control"
- compound: "N#CSCc1ccccc1Cl"
  T/C: "105 % of control"
- compound: "S=C([S][Sn]([c]1ccccc1)([c]1ccccc1)[c]1ccccc1)N1CCOCC1"
  T/C: "100 % of control"
- compound: "ClC1CC[N-]CC1.ClC1CC[N-]CC1.[Cl][Pt+2]([Cl])([Cl])[Cl]"
  T/C: "104 % of control"
- compound: "OC(COC(c1ccccc1)(c1ccccc1)c1ccccc1)C(O)CC1SCCS1 (stereo not drawn)"
  T/C: "107 % of control"
- compound: "Cc1cccc(C)c1NC(=S)N(C)C"
  T/C: "110 % of control"
- compound: "CCN(CCP(c1ccccc1)c1ccccc1)CCP(c1ccccc1)c1ccccc1"
  T/C: "119 % of control"

###

tested on: BDF1 mice, B16 melanoma ip, median survival T/C; assay: NCI In Vivo Anticancer Drug Screen. Data for tumor model B16 Melanoma (intraperitoneal) in B6D2F1 (BDF1) mice; conditions: endpoint: median survival time; dose: 20.0 mg/kg/injection; schedule: Q01DX009 (ip); vehicle: Klucel (hydroxypropylcellulose) (HPC)
Inconclusive results and toxic doses are left out. The calls were made as follows: active = survival T/C of 150% or more; inactive = T/C below 125% in these data.
Classes used: 1.0 for active, 0.0 for inactive

- input-smiles: "CNc1ncnc2c1cnn2C"
  discrete-label: 0.0
- input-smiles: "c1ccc2c(NCCCCCCNc3c4ccccc4nc4ccccc34)c3ccccc3nc2c1"
  discrete-label: 1.0
- input-smiles: "O=C1C(Cl)=C(N2CC2)C(=O)C(Cl)=C1N1CC1"
  discrete-label: 0.0
- input-smiles: "ClCC[N-]CC[N-]CCCl.ClCC[N-]CC[N-]CCCl.[O-][Cl+3]([O-])([O-])O.[Zn+2]"
  discrete-label: 0.0

###

test system: BDF1 mice, B16 melanoma ip, median survival T/C; assay: NCI In Vivo Anticancer Drug Screen. Data for tumor model B16 Melanoma (intraperitoneal) in B6D2F1 (BDF1) mice; conditions: endpoint: median survival time; dose: 100.0 mg/kg/injection; schedule: Q01DX009 (ip); vehicle: suspension in saline
Toxic doses and inconclusive results are not listed. Rule for the calls: active = survival T/C of 150% or more; inactive = T/C below 125% in these data.
Classes used: y for active, n for inactive

- compound: "Cc1cc(O)c(N=Nc2ccc(C(=O)O)cc2)cc1C"
  discrete-label: "n"
- compound: "Cc1cc(NS(=O)(=O)c2ccc(N=Nc3cc(N=Nc4ccc(S(=O)(=O)Nc5cc(C)nc(C)n5)cc4)c4c(NC(=O)C(Cl)Cl)cccc4c3OC(=O)C(Cl)Cl)cc2)nc(C)n1 (tested in a mixture with another compound)"
  discrete-label: "n"
- compound: "Nc1nc2nc[nH]c2c(=O)[nH]1"
  discrete-label: "n"
- compound: "O=C1N(CC2CO2)CCN1CC1CO1 (centres undefined)"
  discrete-label: "y"

All figures here come from PubChem BioAssay AID192.
